test system: Plasmodium berghei; experiment: Screen against P. berghei liver stage (PbLuc), transformed with Luciferase, at 10uM; format: functional, HepG2; conditions: tested at 10 uM
Hit rate of the full screen: of about 69,000 compounds, about 8,600 (12%) showed an effect of 50% or more. What follows is part of a selection rich in strong results, with near analogues and random picks from the rest.
readout-label: INHIBITION (%)
Numbers only, in %.

compound	readout-label	unit	value-reported
c1ccc(CN2CCc3ncnc(C4CCOC4)c3CC2)nc1 (centres undefined)	INHIBITION	%	33

Give one value of INHIBITION per listed compound.
1. CC(C)Cc1nc(OCC(N)=O)c(C#N)c2c1CCC2
2. Cc1nc(C2CCCN2CCS(C)(=O)=O)no1 (centres undefined)

RESULT:
[16.6, 26.55]

Below are some compounds; for each one, tell me its INHIBITION.
1. COc1cccc(CN2CCC(CO)(Cc3ccc(Cl)cc3)CC2)c1O
2. O=C(NCCCN1CCOCC1)c1cccc(OCc2ccccc2)c1
3. Cc1cc(CN(C)C(=O)C(c2ccccc2F)N(C)C)ccn1 (centres undefined)
4. Cc1nc(C)c(C(=O)N2CCCC2c2nc(O)cc(C(C)C)n2)s1 (centres undefined)

RESULT:
85.4
30
30
13.5

Dear colleague, could you send me INHIBITION for each of the items below? Thanks.
1. CCNC(=O)CN1CCN(Cc2nc3c(F)cccc3n2CC)CC1
2. CSCc1noc(CNC(=O)C2CCN(C(=O)C3CCC3)CC2)n1
3. COCCNC(=O)[C@H]1CN(Cc2csc(C)n2)C[C@H]2OCC[C@@H]12
4. Cc1nc(CC(=O)NS(=O)(=O)c2cccc3cnccc23)cs1
5. O=C(NCc1csc2ccc(Cl)cc12)c1cc2n(n1)CCNC2
6. O=C(Cc1cccc(O)c1)NCCCNC(=O)c1cccc(F)c1
7. CC(C)n1[nH]c(=O)c2c1NC(=O)CSC2c1ccc(OCC(N)=O)cc1 (centres undefined)

RESULT:
1: 30.85; 2: 16.7; 3: 24.9; 4: 6.33; 5: 44.4; 6: 8.64; 7: 6.83

# return INHIBITION for each item in the list
1. CSCc1noc(CNC(=O)C2CCN(C3CCCCC3)CC2)n1
2. COCCNC(=O)[C@@H]1CN(c2ncccn2)C[C@H]2OCC[C@H]21
3. COCCNC(=O)[C@@H]1CN(c2cc(OC)ncn2)C[C@H]2OCC[C@H]21
4. CC(C)n1[nH]c(=O)c2c1NC(=O)CC2C1CCCCC1 (centres undefined)
5. OCC1(Cc2ccc(Cl)cc2)CCN(Cc2ccccc2O)CC1
6. COc1cc(N2C[C@H](C(=O)NCC3CC3)[C@@H]3CCO[C@@H]3C2)ncn1
7. C[C@@H]1CN(C(=O)Cc2ccsc2)C[C@]12CCN(CCN(C)C)C2=O

RESULT:
53.9
43.9
24.9
-25.6
14.6
-29.3
26

Please go through the list and note INHIBITION for each compound.
1. Clc1ccc(CN2CCC3(CC2)CC(c2cccnc2)=NO3)cc1
2. O=C(NC1CCCC1)N1C[C@H]2CN(c3ccncc3)C[C@@]2(C(=O)O)C1
3. CCCOc1ccc(C2SCC(=O)Nc3c2c(=O)[nH]n3C(C)C)cc1 (centres undefined)
4. O=C(O)[C@]12CCCN(C3CCOC3)C[C@H]1CN(c1nncs1)C2 (some centres undefined)
5. COCCNC(=O)[C@H]1CN(c2ncccn2)C[C@H]2OCC[C@@H]12
6. O=C(CSC1=NS(=O)(=O)c2cc(F)ccc2N1)c1ccccc1
7. COc1ccccc1C1CC(=O)Nc2nc(N3CCCCC3)sc21 (centres undefined)
8. COCCCNC(=O)C(C)(C)N(C)C1CCCC1

RESULT:
46.6
28.7
15.1
4.98
55.5
10.2
15.1
72.1

Hey, quick one: what's INHIBITION for each of these?
1. O=C(CN1CCCC1c1noc(C2CC2)n1)N1CCc2ccccc21 (centres undefined)
2. Cc1nnc(N2C[C@H](C(=O)NCc3ccco3)[C@@H]3CCO[C@@H]3C2)s1
3. CNC(=O)Cn1c(-c2ccco2)nn(-c2ccccc2OC)c1=O
4. c1nc2c(c(C3CCOC3)n1)CCN(Cc1ccoc1)CC2 (centres undefined)
5. Cc1nnc(N2C[C@H]3OCC[C@H]3[C@H](C(=O)NCC3CC3)C2)s1
6. CSCc1noc(CNC(=O)C2CCN(C(=O)C3CCCC3)CC2)n1
7. O=C(CCCNC(=O)Nc1ccc(F)cc1)Nc1cn[nH]c1

RESULT:
1: 7.08; 2: 15.4; 3: 59.5; 4: 12.1; 5: 66.9; 6: -26; 7: 20.7

For every listed record, write down its INHIBITION.
1. Cc1cc(C(=O)Nc2nc3c(s2)CN(S(=O)(=O)C2CC2)CC3)c(C)o1
2. COCCNC(=O)[C@H]1CN(c2nnc(C)s2)C[C@H]2OCC[C@@H]12
3. O=C(NC1CCCC1)N1C[C@H]2CN(c3ccccn3)C[C@@]2(C(=O)O)C1
4. Cc1ccc(N2C[C@@H]3CN(C(=O)NC4CCCC4)C[C@]3(C(=O)O)C2)nn1

RESULT:
1. -59.6
2. 52.9
3. 6.27
4. 56.6

// for each compound in input: emit INHIBITION
1. Clc1ccc(CN2CCC(C3CCN(Cc4cccnc4)CC3)C2)cc1 (centres undefined)
2. O=C(CCc1ccc(F)c(F)c1)N1CCCCC1Cn1cccn1 (centres undefined)
3. CCCS(=O)(=O)NC(C)C(=O)NCc1ccnc(N2CCCC2)c1 (centres undefined)

RESULT:
36.8
21.5
14.4

QUERY: Recall and state the measured INHIBITION for Cc1cnn(CC(=O)N2CCC(Nc3ccc(C)nn3)CC2)c1 .
RESULT: 39.95
